Listing of recorded X162 S.I. by entry.
Tested on: PBMC from normal individuals
Assay: In vitro T cell proliferative responses of human PBMC ([3H]thymidine incorporation)
Type: cell-based
Details: 3rd Stimulation, donor X162
Give only the figure.

sample.smiles | test.value
CC(C)C[C@H](NC(=O)[C@@H](NC(=O)[C@H](CC(N)=O)NC(=O)[C@H](C)NC(=O)[C@H](C)NC(=O)[C@@H](NC(=O)[C@H](CC1CCCCC1)NC(=O)[C@H](CCCCN)NC(=O)[C@@H](C)N)C(C)C)[C@@H](C)O)C(=O)N[C@@H](CCCCN)C(=O)N[C@@H](C)C(=O)N[C@@H](C)C(=O)N[C@H](C)C(N)=O | 2.3

Okay, next one:
INPUT: Item CC(C)C[C@H](NC(=O)[C@@H](NC(=O)[C@H](Cc1c[nH]c2ccccc12)NC(=O)[C@H](C)NC(=O)[C@H](C)NC(=O)[C@@H](NC(=O)[C@H](CC1CCCCC1)NC(=O)[C@H](CCCCN)NC(=O)[C@@H](C)N)C(C)C)[C@@H](C)O)C(=O)N[C@@H](CCCCN)C(=O)N[C@@H](C)C(=O)N[C@@H](C)C(=O)N[C@H](C)C(N)=O has what recorded X162 S.I.?
OUTPUT: 11

---

Test system: PBMC from normal individuals
Assay: In vitro T cell proliferative responses of human PBMC ([3H]thymidine incorporation)
Format: cell-based
Conditions: 2nd Stimulation, donor X372
The label depends only on X372 (Δmax cpm): Condition met if it is at least 20000 cpm, Condition not met if it is smaller.

Completed entries (count: 5):
sample.smiles | label.class
CC(C)C[C@H](NC(=O)[C@@H](NC(=O)[C@H](Cc1ccc(O)cc1)NC(=O)[C@H](C)NC(=O)[C@H](C)NC(=O)[C@@H](NC(=O)[C@H](CC1CCCCC1)NC(=O)[C@H](CCCCN)NC(=O)[C@@H](C)N)C(C)C)[C@@H](C)O)C(=O)N[C@@H](CCCCN)C(=O)N[C@@H](C)C(=O)N[C@@H](C)C(=O)N[C@H](C)C(N)=O | Condition not met
CC(C)C[C@H](NC(=O)[C@@H](NC(=O)[C@H](CCCCN)NC(=O)[C@H](C)NC(=O)[C@H](C)NC(=O)[C@@H](NC(=O)[C@H](CC1CCCCC1)NC(=O)[C@H](CCCCN)NC(=O)[C@@H](C)N)C(C)C)[C@@H](C)O)C(=O)N[C@@H](CCCCN)C(=O)N[C@@H](C)C(=O)N[C@@H](C)C(=O)N[C@H](C)C(N)=O | Condition not met
CC(C)C[C@H](NC(=O)[C@@H](NC(=O)[C@H](CC(N)=O)NC(=O)[C@H](C)NC(=O)[C@H](C)NC(=O)[C@@H](NC(=O)[C@H](CC1CCCCC1)NC(=O)[C@H](CCCCN)NC(=O)[C@@H](C)N)C(C)C)[C@@H](C)O)C(=O)N[C@@H](CCCCN)C(=O)N[C@@H](C)C(=O)N[C@@H](C)C(=O)N[C@H](C)C(N)=O | Condition met
CC(C)C[C@H](NC(=O)[C@@H](NC(=O)[C@H](Cc1c[nH]c2ccccc12)NC(=O)[C@H](C)NC(=O)[C@H](C)NC(=O)[C@@H](NC(=O)[C@H](CC1CCCCC1)NC(=O)[C@H](CCCCN)NC(=O)[C@@H](C)N)C(C)C)[C@@H](C)O)C(=O)N[C@@H](CCCCN)C(=O)N[C@@H](C)C(=O)N[C@@H](C)C(=O)N[C@H](C)C(N)=O | Condition met
CC(C)C[C@H](NC(=O)[C@@H](NC(=O)[C@H](Cc1c[nH]cn1)NC(=O)[C@H](C)NC(=O)[C@H](C)NC(=O)[C@@H](NC(=O)[C@H](CC1CCCCC1)NC(=O)[C@H](CCCCN)NC(=O)[C@@H](C)N)C(C)C)[C@@H](C)O)C(=O)N[C@@H](CCCCN)C(=O)N[C@@H](C)C(=O)N[C@@H](C)C(=O)N[C@H](C)C(N)=O | Condition not met

INPUT: Please check the record CC(C)C[C@H](NC(=O)[C@@H](NC(=O)[C@H](C)NC(=O)[C@H](C)NC(=O)[C@H](C)NC(=O)[C@@H](NC(=O)[C@H](CC1CCCCC1)NC(=O)[C@H](CCCCN)NC(=O)[C@@H](C)N)C(C)C)[C@@H](C)O)C(=O)N[C@@H](CCCCN)C(=O)N[C@@H](C)C(=O)N[C@@H](C)C(=O)N[C@H](C)C(N)=O and state if its X372 (Δmax cpm) is at or above 20000 cpm.
OUTPUT: Condition not met

INPUT: Please check the record CC(C)C[C@H](NC(=O)[C@@H](NC(=O)[C@H](Cc1c[nH]c2ccccc12)NC(=O)[C@H](C)NC(=O)[C@H](C)NC(=O)[C@@H](NC(=O)[C@H](CC1CCCCC1)NC(=O)[C@H](CCCCN)NC(=O)[C@H](C)N)C(C)C)[C@@H](C)O)C(=O)N[C@@H](CCCCN)C(=O)N[C@@H](C)C(=O)N[C@@H](C)C(=O)N[C@@H](C)C(N)=O and state if its X372 (Δmax cpm) is at or above 20000 cpm.
OUTPUT: Condition not met
